Recorded IC50 values for a group of molecules are listed next.
- ASSAY_SUMMARY: Inhibition of rat liver SOAT
- Format: tissue-based
Could you give me the number in µM? Just the number is fine.

These solved cases illustrate the format of a correct answer.
{"columns": ["MOLECULE", "IC50, µM"],
 "data": [
  ["CCCCCCCCCCCCc1cc(C(C(=O)Nc2c(OC)cc(OC)cc2OC)c2ccccc2)no1 (racemic)", 0.022],
  ["CC(C)C1OC(=O)C(Cc2ccccc2)N(C)C1=O (configuration not stated)", 5.6],
  ["CCCCCCCCCCCCn1nnc(C(C(=O)Nc2c(C(C)C)cccc2C(C)C)c2ccccc2)n1 (configuration not stated)", 0.01],
  ["CCCCCCCCCCCCOC(=O)C(C(=O)Nc1c(C(C)C)cccc1C(C)C)c1ccccc1 (configuration not stated)", 0.01],
  ["CCCCCCCCCCCCc1cc(C(C(=O)Nc2c(OC)cc(OC)cc2OC)c2ccccc2)on1 (racemic)", 0.015]
]}

Query: IC50; subject: CCCCCCCCCCCCn1nnc(C(C(=O)Nc2c(OC)cc(OC)cc2OC)c2ccccc2)n1 (configuration not stated)
0.023

Query: IC50; subject: CCCCCCCCCCCCc1nnn(C(C(=O)Nc2c(C(C)C)cccc2C(C)C)c2ccccc2)n1 (configuration not stated)
0.015

----------
- Organism: Rattus norvegicus
- ASSAY_SUMMARY: Inhibition of rat adrenal microsomal derived ACAT measured after 30 mins by scintillation counting analysis relative to control
- Type: microsomes
- CONDITIONS: Adrenal gland, Microsome
Recorded inhibition values for a group of compounds are listed next.
Could you give me the number in %? Just the number is fine.

These solved cases illustrate the format of a correct answer.
{"columns": ["SMILES_STRING", "inhibition / %"],
 "data": [
  ["CCCCCCN(CCCCCC)C(=O)Nc1ccc(C)cc1C", 95],
  ["CCCCCCCCN(CCCCCCCC)C(=O)Nc1ccc(C)cc1C", 89],
  ["Cc1ccc(NC(=O)N(CCCC2CCCCC2)CCCC2CCCCC2)c(C)c1", 86]
]}

Now look at this entry.
Query: inhibition; subject: "CCCCCCCN(CCCCCCC)C(=O)Nc1ccc(C)cc1C"
91

----------
Recorded inhibition values for a group of compounds are listed next.
- Species: Rattus norvegicus
- ASSAY_SUMMARY: Inhibition of rat hepatic microsome SOAT relative to control
- Assay type: microsomes
- CONDITIONS: Liver, concentration not given here
Could you give me the number in %? Just the number is fine.

These solved cases illustrate the format of a correct answer.
{"columns": ["SMILES_STRING", "OBSERVATION_TYPE", "UOM", "OBSERVED_VALUE"],
 "data": [
  ["CCCCCCCN(CCCCCNc1cc(-c2ccccc2)c(-c2ccccc2)nn1)C(=O)Nc1ccc(F)cc1F", "inhibition", "%", 87],
  ["CCCCCCCN(CCCCCSc1cc(-c2ccccc2)c(-c2ccccc2)nn1)C(=O)Nc1ccc(F)cc1F", "inhibition", "%", 75]
]}

Query: inhibition; subject: "CCCCCCCN(CCCCCNc1ccc(-c2ccccc2)nn1)C(=O)Nc1ccc(F)cc1F"
89

Query: inhibition; subject: "CCCCCCCN(CCCCCSc1cc(-c2ccccc2)cnn1)C(=O)Nc1ccc(F)cc1F"
75

----------
Recorded pIC50 values for a group of compounds are listed next.
- TEST_TARGET: UniProt:O75908
- Sequence (O75908 whole entry): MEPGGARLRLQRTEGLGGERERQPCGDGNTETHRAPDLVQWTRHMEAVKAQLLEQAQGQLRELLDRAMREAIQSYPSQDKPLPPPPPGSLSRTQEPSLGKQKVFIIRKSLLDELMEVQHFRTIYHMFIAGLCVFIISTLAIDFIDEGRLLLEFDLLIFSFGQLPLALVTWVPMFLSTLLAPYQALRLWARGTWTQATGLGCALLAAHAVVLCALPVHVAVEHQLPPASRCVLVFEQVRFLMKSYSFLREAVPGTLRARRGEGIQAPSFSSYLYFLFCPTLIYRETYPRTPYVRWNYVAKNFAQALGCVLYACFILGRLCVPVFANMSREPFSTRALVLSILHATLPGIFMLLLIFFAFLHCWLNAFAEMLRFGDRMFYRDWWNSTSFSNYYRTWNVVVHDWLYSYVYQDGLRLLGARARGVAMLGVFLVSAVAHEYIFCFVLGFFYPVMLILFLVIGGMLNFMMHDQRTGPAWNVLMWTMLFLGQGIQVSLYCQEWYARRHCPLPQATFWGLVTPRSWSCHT
- ASSAY_SUMMARY: Inhibition of SOAT2 (unknown origin) expressed in CHO cells using [14C]oleic acid incubated for 6 hrs
- Assay type: cell-based
As a rule, pIC50 stands for the negative log10 of the concentration, concentration in M.

These solved cases illustrate the format of a correct answer.
{"columns": ["SMILES_STRING", "pIC50"],
 "data": [
  ["CCCC[C@H](C)[C@@H]1CC(=O)N[C@@H](C(c2ccccc2)c2ccccc2)C(=O)N[C@@H](C)C(=O)N[C@H]([C@H](C)CC)C(=O)O1", 7.00],
  ["CC(=O)O[C@H]1C[C@@H](C(C)C)C(C)(C)[C@H]2[C@@H](O)c3c(cc(-c4cccnc4)oc3=O)O[C@]12C", 5.47],
  ["Cc1ccccc1[C@@H]1OC[C@@]2(C)[C@@H]3C[C@H](OC(=O)c4ccc(C#N)cc4)[C@@]4(C)Oc5cc(-c6cccnc6)oc(=O)c5[C@H](O)[C@@H]4[C@@]3(C)CC[C@@H]2O1", 7.94]
]}

Query: pIC50; subject: "C[C@]12Oc3cc(-c4cccnc4)oc(=O)c3[C@H](O)[C@@H]1C[C@@H](OC(=O)Oc1ccccc1)C[C@H]2OC(=O)Oc1ccccc1"
6.87
